The following molecules are listed with their measured IC50 values.
Biological target: recombinant human serotonin transporter (Homo sapiens)
Construct: expressed in transfected cells; host or cells: HEK-293
Sequence (P31645 whole entry): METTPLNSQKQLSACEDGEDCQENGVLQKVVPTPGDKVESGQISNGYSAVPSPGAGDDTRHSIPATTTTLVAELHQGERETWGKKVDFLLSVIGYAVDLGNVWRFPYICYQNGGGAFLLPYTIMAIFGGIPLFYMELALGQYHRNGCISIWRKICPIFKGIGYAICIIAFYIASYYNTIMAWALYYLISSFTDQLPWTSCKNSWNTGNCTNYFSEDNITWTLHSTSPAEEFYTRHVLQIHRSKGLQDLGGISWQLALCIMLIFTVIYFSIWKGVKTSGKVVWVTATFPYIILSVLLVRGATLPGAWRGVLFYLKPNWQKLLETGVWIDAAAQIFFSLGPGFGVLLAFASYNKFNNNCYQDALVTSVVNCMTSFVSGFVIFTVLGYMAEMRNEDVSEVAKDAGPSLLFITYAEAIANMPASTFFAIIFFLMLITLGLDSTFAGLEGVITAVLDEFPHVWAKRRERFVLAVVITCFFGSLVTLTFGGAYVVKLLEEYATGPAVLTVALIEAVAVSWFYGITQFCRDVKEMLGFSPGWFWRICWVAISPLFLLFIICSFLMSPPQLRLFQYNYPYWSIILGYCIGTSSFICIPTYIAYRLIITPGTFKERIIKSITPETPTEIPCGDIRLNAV
Experiment: Serotonin functional uptake assay for human reuptake transporter
Format: cell-based
Settings: [3H]serotonin uptake, HEK-293 cells expressing human serotonin transporter; read-out: Human IC50 (nM) SERT
Numbers only here, please. The scale is nM.

Record excerpt, results attached:
| molecule | IC50 (nM) |
| --- | --- |
| COc1ccc2c(c1)C[C@H](N(C)C)C[C@@H]2c1ccc(Cl)c(Cl)c1 (single isomer, unassigned) [Compound 33c.1] | 24 |
| CC([C@@H]1Cc2ccccc2[C@H](c2ccc(Cl)c(Cl)c2)C1)N(C)C (single isomer, unassigned) [Compound 54] | 815 |
| CN[C@@H]1Cc2cccc(OC)c2[C@H](c2ccc(Cl)c(Cl)c2)C1 (single isomer, unassigned) [Compound 32b.1] | 359 |

Pending molecule:
Look up and state reported IC50 for CN(C)C1CC(c2ccc(Cl)c(Cl)c2)c2ccccc2C1O (single isomer, unassigned) [Compound 23b]
1300
